Measured z-score values are reported for all entries that follow.
- procedureSummary: JC-1 mitochondrial signal, unstimulated HepG2 cells – cell-based, JC-1 fluorescence, 24 h, 100 nL compound, profiling panel (AID 1167); also: test concentration not given here
- statedConditions: HepG2 mitochondrial potential, higher = more signal
No unit in the answer, please; the number alone is enough.

Known z-score results, listed for orientation:
compound	z-score
O=C1C2C=CC(C(O)c3ccc(-c4ccccc4)s3)N(Nc3ccccc3)C2C(=O)N1c1ccccc1 (stereo not drawn)	-1.75
[N-]=[N+]=NCc1ccccc1[C@@H]1OC(c2ccc(OCCCO)cc2)=N[C@]1(CCS(=O)(=O)c1ccccc1)C(=O)N1CCCCC1	-0.132
Cc1ccc(S(=O)(=O)N2C[C@@H](C(=O)O)[C@H](Sc3ccccc3)C[C@H]2c2ccccc2)cc1	-0.654
[N-]=[N+]=Nc1ccccc1C[C@]1(C(=O)NCC(O)CO)N=C(c2ccc(OCCCO)cc2)O[C@H]1c1ccccc1 (stereo partly drawn)	-0.571
CN1C(=O)C2C=CC(C(O)C=Cc3ccc([N+](=O)[O-])cc3)N(Nc3ccccc3)C2C1=O (stereo not drawn)	-1.53
CN1C(=O)C2C=CC(C(O)c3c(F)cccc3Cl)N(NC(=O)OC(C)(C)C)C2C1=O (stereo not drawn)	-1.25

The compound C=C(CCCC)/C(=C/C[C@H](OC(C)=O)c1ccc(OCCO)cc1)c1cnc2ccccc2c1 showed z-score equal to 1.91

// recorded z-score for COc1ccccc1CN1C(=O)c2ccccc2[C@@]2(Cc3ccccc3N(CCCN(C)C)C2=O)[C@@H]1c1ccc(CO)cc1 : 0.511

* * *

- procedureSummary: FRG1 expression reporter modulators in myotubes – cell-based, C2C12 myotubes, firefly/Renilla luciferase, luminescence, FRG1 inhibition for FSHD, primary screen (AID 1084)
- statedConditions: FRG1 promoter luciferase, higher = more signal, called active from +8 up or from −8 down
Decision: z-score compared against -0.4; not below it gives Fulfilled, below it gives Not fulfilled.

compound	classLabel
O=C1OCCC=C[C@H]2OC34C=CCN(CCN5CCOCC5)C(=O)[C@H]3N(CCCCCO)C(=O)[C@@H]4C12 (stereo not given in full)	Not fulfilled

Let's switch to this compound now.
**Q:** Given CC1CC/C=C\[C@H]2OC34C=CCN(c5ccc6ccccc6c5)C(=O)[C@H]3N(CCO)C(=O)[C@@H]4C2C(=O)O1 (stereo not given in full) , state whether its z-score is at least -0.4.
**A:** Fulfilled

* * *

- procedureSummary: blood-stage malaria parasite viability loss – strain 3D7, DAPI fluorescence, 100 nL, primary screen (AID 1184);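 also: parasites grown inside human red blood cells in medium with human serum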
- statedConditions: P. falciparum 3D7 growth, 3 d, higher = more signal
// map z-score to label using one: < -2; two: ≥ -2 and < 0.1; three: ≥ 0.1

Example cases with answers are listed next.
compound	classLabel
CCOc1ccc(N2C(=O)CSC2c2cccc([N+](=O)[O-])c2)cc1 (stereo not given)	three
CN(C)CCCCCCNC(=O)[C@@H]1C[C@@H]2C(=O)N3CCC[C@H]3C(=O)N2[C@@H]1c1ccc(O)cc1	three
CC[C@@H]1C=C(C(=O)O)[C@H](c2cccc3ccccc23)N1S(=O)(=O)c1ccc(C)cc1	two
C[N+](C)(C)CCCC[C@@H]1NC(=O)[C@@H]2C[C@H](C(=O)NCCCCCN)[C@H](c3ccc(O)cc3)N2C1=O	three
COC(=O)[C@@]1(CCC(=O)OC(C)(C)C)N=C(c2ccc(OCCCO)cc2)O[C@H]1c1ccccc1	one

**Q:** Could you place CC(C)NC(=O)[C@@]1(Cc2ccccc2I)c2ccccc2C(=O)N(Cc2ccccc2Cl)[C@H]1c1ccc(CO)cc1 in its proper category? Many thanks.
**A:** two

**Q:** Lab note: which band did O=C1NC(=O)C2C1C=CC(C(O)c1ccc(I)cc1)N2Nc1ccccn1 (stereo not given) land in?
**A:** three

**Q:** Please let me know in which category the item O=C(CS)NCCCCCNC(=O)[C@@H]1C[C@@H]2C(=O)NCC(=O)N2[C@@H]1c1ccc(O)cc1 belongs.
**A:** two

**Q:** Form field 'band' for C=CCN1C(=O)[C@]2(O[C@H](CCO)[C@@H]([Si](C)(C)c3ccc(OC)cc3)[C@@H]2C)c2cc(N(C=O)c3ccccc3)ccc21
**A:** one

**Q:** Which class is correct for the following compound? [N-]=[N+]=Nc1ccccc1C[C@@]1(C(=O)N2CCCCC2)N=C(c2ccc(OCCCO)cc2)O[C@@H]1c1ccccc1
**A:** one

**Q:** Which of the defined bands does the recorded z-score of COc1ccc([C@H]2C[C@H]3C(I)=C[C@@H]2C(=O)[C@]32CO2)cc1 sit within?
**A:** three

**Q:** Please classify: CCCCN1CC=CC23O[C@@H]4C=CCCOC(=O)C4[C@H]2C(=O)N(CCCCCO)[C@@H]3C1=O (stereo not given in full)
**A:** three

**Q:** Looking at COCCCNC(=O)[C@@]1(Sc2ccc(C)cc2)CC(=O)N(Cc2ccccc2Cl)[C@@H]1c1ccc(CO)cc1 , which class would you pick?
**A:** two

**Q:** Using the reported z-score, which band applies to Cc1ccc(C2C3C(=O)CC4C(=O)N(c5ccccc5)C(=O)C4C3CN2S(=O)(=O)c2ccc(C)cc2)cc1 (stereo not given) ?
**A:** three

**Q:** Which z-score category applies to COc1ccc([Si](C)(C)[C@H]2[C@H](CCn3cc([C@H](O)c4ccccc4)nn3)O[C@@]3(C(=O)N(C)c4ccccc43)[C@@H]2C)cc1 here?
**A:** two

**Q:** Which z-score band matches CCCCN1CC=CC23O[C@@H]4C=CCOC(=O)[C@@H]4[C@H]2C(=O)N(CCCCCCO)[C@@H]3C1=O (stereo not given in full) ?
**A:** two

**Q:** Form: Item = O=C(O)[C@H]1C[C@H]2C(=O)N3CCC[C@H]3C(=O)N2[C@H]1c1ccc(O)cc1 ; Class = ?
**A:** three

**Q:** For this compound, which bin applies? CC1CC/C=C\[C@H]2OC34C=CCN(Cc5ccccc5)C(=O)[C@H]3N(C(C)CO)C(=O)[C@@H]4C2C(=O)O1 (stereo not given in full)
**A:** two

**Q:** // bin(item) where item = COCCOC(=O)N1C(=O)[C@@]2(c3ccccc31)[C@H](C(=O)N1CCc3cc(OC)c(OC)cc3C1)[C@H]1C(=O)O[C@H](c3ccccc3)[C@H](c3ccccc3)N1[C@@H]2c1ccc(O)cc1
**A:** two

**Q:** Entry COCCCNC(=O)[C@@]1(Cc2ccccc2CN=[N+]=[N-])N=C(c2ccc(OCCCO)cc2)O[C@H]1c1ccccc1CN=[N+]=[N-] belongs to which category?
**A:** one

**Q:** Input C=C(CCCC)/C(=C/C[C@H](OC(C)=O)c1ccccc1OCCO)c1cnc2ccccc2c1 ; output its category
**A:** one

**Q:** Which class does COc1ccc(C(=O)Nc2cccc(CN3C(=O)[C@]4(O[C@H](CCn5cc(CCO)nn5)[C@@H]([Si](C)(C)c5ccc(OC)cc5)[C@@H]4C)c4ccccc43)c2)cc1 fall in?
**A:** one

**Q:** State the class of the compound shown: CCCCN1CC=CC23O[C@@H]4/C=C\CCCOC(=O)C4[C@H]2C(=O)N(CCCCCO)[C@@H]3C1=O (stereo not given in full)
**A:** three

**Q:** Which z-score category applies to CCOC(=O)C[C@H]1[C@H](OC(=O)c2ccc(-c3ccccc3)cc2)[C@@H](NC(=O)c2ccccc2)c2cc(OCCCO)ccc2N1C(=O)c1ccc2ccccc2n1 here?
**A:** three

**Q:** Band of CCOC(=O)C[C@H]1[C@H](OC(=O)c2ccc(C(=O)c3ccccc3)cc2)[C@@H](NC(=O)c2ccccc2)c2cc(OCCCO)ccc2N1C(=O)c1ccccc1 ?
**A:** two

**Q:** Band for the recorded z-score of O=C(NC1CC1)[C@@H]1c2ccccc2C(=O)N(C2Cc3ccccc3C2)[C@H]1c1ccc(CO)cc1 ?
**A:** two

**Q:** Any idea which band NCCCCCNC(=O)[C@H]1C[C@H]2C(=O)N[C@@H](Cc3ccccc3)C(=O)N2[C@H]1c1cccc(OCCO)c1 is in?
**A:** two

**Q:** Into which bin does this compound go? C=C(CCCC)/C(=C/C[C@H](OC(C)=O)c1ccc(OCCO)cc1)c1cnc2ccccc2c1
**A:** one

**Q:** Entry COCCOC(=O)N1C(=O)[C@@]2(c3cc(C#CCCO)ccc31)[C@H](c1ccc(O)cc1)N1[C@H](c3ccccc3)[C@H](c3ccccc3)OC(=O)[C@H]1[C@@H]2C(=O)N1CCN(c2ncccn2)CC1 belongs to which category?
**A:** two
